condition.context: in vivo, po, 100 mg/kg, 1 h
Below: a set of entries, each annotated with reported Hematic levels in the rat.

- compound: "CCC(=O)O[C@H]1[C@H](O[C@@H]2[C@@H](C)[C@H](O[C@H]3C[C@@](C)(OC)[C@@H](O)[C@H](C)O3)[C@@H](C)C(=O)O[C@H](CC)[C@@](C)(O)[C@H](O)[C@@H](C)C(=O)[C@H](C)C[C@@]2(C)O)O[C@H](C)C[C@@H]1N(C)C [RV14]"
  unit.info: "µg/mL"
  Hematic levels in the rat: 1.85
- compound: "CCC(=O)O[C@H]1[C@H](O[C@@H]2[C@@H](C)[C@H](O[C@H]3C[C@@](C)(OC)[C@@H](O)[C@H](C)O3)[C@@H](C)C(=O)O[C@H](CC)[C@@](C)(O)[C@H](O)[C@@H](C)C(=O)[C@H](C)C[C@@]2(C)O)O[C@H](C)C[C@@H]1N(C)C [RV13]"
  unit.info: "µg/mL"
  Hematic levels in the rat: 1.80
- compound: "CCC(=O)O[C@H]1[C@H](O[C@@H]2[C@@H](C)[C@H](O[C@H]3C[C@@](C)(OC)[C@@H](O)[C@H](C)O3)[C@@H](C)C(=O)O[C@H](CC)[C@@](C)(O)[C@H](O)[C@@H](C)C(=O)[C@H](C)C[C@@]2(C)O)O[C@H](C)C[C@@H]1N(C)C [RV11]"
  unit.info: "µg/mL"
  Hematic levels in the rat: 1.64
- compound: "CCC(=O)O[C@H]1[C@H](O[C@@H]2[C@@H](C)[C@H](O[C@H]3C[C@@](C)(OC)[C@@H](O)[C@H](C)O3)[C@@H](C)C(=O)O[C@H](CC)[C@@](C)(O)[C@H](O)[C@@H](C)C(=O)[C@H](C)C[C@@]2(C)O)O[C@H](C)C[C@@H]1N(C)C [RV15]"
  unit.info: "µg/mL"
  Hematic levels in the rat: 1.90
